Entries and their Emax values follow.
Target: UniProt:P08172
Sequence (P08172 whole entry): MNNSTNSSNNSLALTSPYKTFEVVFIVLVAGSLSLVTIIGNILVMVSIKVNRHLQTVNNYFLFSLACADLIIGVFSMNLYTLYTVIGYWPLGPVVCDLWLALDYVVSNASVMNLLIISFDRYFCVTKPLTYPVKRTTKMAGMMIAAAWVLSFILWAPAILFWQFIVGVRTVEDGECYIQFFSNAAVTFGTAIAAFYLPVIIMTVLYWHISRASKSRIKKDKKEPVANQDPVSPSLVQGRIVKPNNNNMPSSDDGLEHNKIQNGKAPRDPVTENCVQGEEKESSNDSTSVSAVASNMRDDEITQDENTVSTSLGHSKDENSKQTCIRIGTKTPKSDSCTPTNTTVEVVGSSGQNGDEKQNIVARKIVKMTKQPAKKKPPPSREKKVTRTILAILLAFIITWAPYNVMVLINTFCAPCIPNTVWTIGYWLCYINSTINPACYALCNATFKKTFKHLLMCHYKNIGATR
Experiment: Functional M2-GIRK1/4 activation test: allosteric potency (EC50) and efficiency
Settings: read-out: Efficiency, boosting of the acetylcholine effect at EC20 acetylcholine concentration; CHO-DUKX-M2-GIRK cells
Give a bare numeral; the unit % is implied.

[[record]]
compound = "CC1C(O)C2(CC2)C(=O)N1c1ccc2c(=O)c(C(=O)N[C@@H](C3CC3)C(F)(F)F)cn(-c3ncc(F)cc3F)c2n1 (stereo partly shown)"
system = "UniProt:P08172"
recorded_number = 89

[[record]]
compound = "O=C(Nc1c(Cl)cccc1Cl)c1cn(-c2ncc(F)cc2F)c2nc(N3C[C@H](O)[C@@H](O)C3)ccc2c1=O"
system = "UniProt:P08172"
recorded_number = 96

[[record]]
compound = "CC(C)(CC(F)(F)F)NC(=O)c1cn(-c2ncc(F)cc2F)c2nc(N3C[C@@H](O)[C@H](O)C3)ccc2c1=O"
system = "UniProt:P08172"
recorded_number = 99

[[record]]
compound = "CC[C@H](NC(=O)c1cn(-c2ncc(F)cc2F)c2nc(N3CC(C)CC3=O)ccc2c1=O)C(F)(F)F (stereo partly shown)"
system = "UniProt:P08172"
recorded_number = 99

[[record]]
compound = "CC1(C)C(=O)N(c2ccc3c(=O)c(C(=O)N[C@@H](C4CC4)C(F)(F)F)cn(-c4ncc(F)cc4F)c3n2)C2(CC2)C1O (stereo partly shown)"
system = "UniProt:P08172"
recorded_number = 83

[[record]]
compound = "CC(NC(=O)c1cn(-c2ncc(F)cc2F)c2nc(N3CCC[C@@H]3CO)ccc2c1=O)C(F)(F)C(F)(F)F (single isomer, unassigned)"
system = "UniProt:P08172"
recorded_number = 98.5

[[record]]
compound = "CC(C)(NC(=O)c1cn(-c2ncc(F)cc2F)c2nc(N3CC4(COC4)C3)ccc2c1=O)C(F)(F)C(F)(F)F"
system = "UniProt:P08172"
recorded_number = 100

[[record]]
compound = "CC(NC(=O)c1cn(-c2ncc(F)cc2F)c2nc(N3C[C@@H](O)[C@H](O)C3)ccc2c1=O)(C1CC1)C(F)(F)F (stereo partly shown)"
system = "UniProt:P08172"
recorded_number = 100

[[record]]
compound = "O=C(N[C@H](C1CC1)C(F)(F)F)c1cn(-c2ncccc2F)c2nc(N3C[C@@H](O)CC3=O)ccc2c1=O"
system = "UniProt:P08172"
recorded_number = 100

[[record]]
compound = "O=C(NC(C(F)(F)F)C(F)(F)F)c1cn(-c2ncc(F)cc2F)c2nc(N3C[C@@H](O)[C@H](O)C3)ccc2c1=O"
system = "UniProt:P08172"
recorded_number = 100


Emax for UniProt:P08172 with input CC(C)C(NC(=O)c1cn(-c2ncc(F)cc2F)c2nc(N3CCNC3=O)ccc2c1=O)C(F)(F)F (racemic) equals 97.5

Emax for UniProt:P08172 with input CCC(NC(=O)c1cn(-c2ncc(F)cc2F)c2nc(N3CCNC3=O)ccc2c1=O)C(F)(F)C(F)(F)F (single isomer, unassigned) [Example 165] equals 84

Emax for UniProt:P08172 with input O=C(N[C@H](C1CC1)C(F)(F)F)c1cn(-c2ncc(F)cc2Cl)c2nc(N3CC4CC4(O)C3)ccc2c1=O (mixture of isomers) equals 90.5
